meta.source: patent US20210155689A1

Listing of entries alongside the reported Mean fluorescence intensity.
Target: T1, human LAG-3 on cells (HEK293-hLAG-3 stable cell line) (human, UniProt P18627 23-525)
T1 sequence: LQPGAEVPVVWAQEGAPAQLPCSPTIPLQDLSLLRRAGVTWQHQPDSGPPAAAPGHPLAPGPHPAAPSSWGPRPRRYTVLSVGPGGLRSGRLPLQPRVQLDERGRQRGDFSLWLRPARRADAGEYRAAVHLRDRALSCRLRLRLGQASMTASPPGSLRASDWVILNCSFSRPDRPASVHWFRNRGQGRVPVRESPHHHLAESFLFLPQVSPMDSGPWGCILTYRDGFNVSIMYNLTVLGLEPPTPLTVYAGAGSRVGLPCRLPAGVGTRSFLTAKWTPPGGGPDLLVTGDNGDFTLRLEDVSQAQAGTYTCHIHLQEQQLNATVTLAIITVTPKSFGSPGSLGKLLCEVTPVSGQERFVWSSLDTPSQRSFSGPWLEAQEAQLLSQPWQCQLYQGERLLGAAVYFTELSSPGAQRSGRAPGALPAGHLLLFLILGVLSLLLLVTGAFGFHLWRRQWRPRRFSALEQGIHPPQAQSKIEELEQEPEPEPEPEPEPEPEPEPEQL
Experiment: FACS, HEK293-hLAG-3, antibody 0 nM

>>> measurement("405B8H3-7 humanized antibody (antibody, V domains shown) VH: QVQLVQSGAEVKKPGASVKVSCKASGYTFTDYEMHWVRQAPGQGLEWIGATDPETGNSAYNQKFKGRATMTADKSTSTAYMELSSLRSEDTAVYYCISTGWNDWGQGTTVTVSS VL: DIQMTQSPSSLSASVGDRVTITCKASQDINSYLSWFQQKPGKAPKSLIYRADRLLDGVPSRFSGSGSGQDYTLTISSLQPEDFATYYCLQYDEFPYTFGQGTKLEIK")
4

Query 405B8H3-5 humanized antibody (antibody, V domains shown) VH: QVQLVQSGAEVKKPGASVKVSCKASGYTFTDYEMHWVRQAPGQGLEWMGATDPETGNSAYNQKFKGRVTMTRDTSTSTVYMELSSLRSEDTAVYYCISTGWNDWGQGTTVTVSS VL: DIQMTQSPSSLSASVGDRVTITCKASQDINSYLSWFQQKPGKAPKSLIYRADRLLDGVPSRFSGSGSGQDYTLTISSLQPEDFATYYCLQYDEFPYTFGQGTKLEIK yields Mean fluorescence intensity of 4
